Data provenance is patent US6943189B2.

subjectOfTest: human IBAT (Homo sapiens)
Construct: expressed in transfected cells; host or cells: Baby hamster kidney (BHK) cells, clone H14
Sequence (Q12908 1-348): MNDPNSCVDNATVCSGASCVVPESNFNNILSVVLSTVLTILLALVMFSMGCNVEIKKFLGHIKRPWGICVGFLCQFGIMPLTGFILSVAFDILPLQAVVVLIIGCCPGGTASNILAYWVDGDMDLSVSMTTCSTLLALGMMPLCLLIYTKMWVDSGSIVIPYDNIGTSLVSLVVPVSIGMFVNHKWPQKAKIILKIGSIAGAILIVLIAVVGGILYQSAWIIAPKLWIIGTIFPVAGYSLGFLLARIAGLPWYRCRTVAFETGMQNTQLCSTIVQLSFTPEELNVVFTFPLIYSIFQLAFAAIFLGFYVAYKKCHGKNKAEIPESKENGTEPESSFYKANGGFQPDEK
experiment: In vitro assay of compounds that inhibit IBAT-mediated uptake of [14C]-taurocholate (TC) in H14 cells
Format: cell-based
conditions: [14C]-taurocholate uptake, read-out: IC50 (In vitro Taurocholate Cell Uptake)
reportedProperty: IC50 (µM)
Write the value in µM as a bare number.

Task: Given the entry CCCCC1(CC)CS(=O)(=O)c2ccccc2C(=C2CCCCC2)C1O (stereo not shown) [Example 10b] , what IC50 was observed with human IBAT (Homo sapiens)?
Result: 15
